Recorded LC retention time for the following compounds
# Test protocol: RP, Waters Atlantis T3, 100 × 2.1 mm, 3 µm, 40 °C, 0.3 mL/min, estimated dead time 0.73 min; A: water + 0.1% trifluoroacetic acid, pH 2; B: acetonitrile + 0.1% trifluoroacetic acid, pH 2; gradient (min/%B) 0/10 1/10 6/40 7/50 8/50 14/70 16/80 20/10 25/10
# Recorded conditions: stereoisomer not certain

Worked set:
[[record]]
compound = "CC1OC(OC2C(Oc3cc(O)c4c(c3)OC(c3ccc(O)cc3)CC4=O)OC(CO)C(O)C2O)C(O)C(O)C1O (stereo not drawn) [Naringin]"
property_name = "LC retention time"
measured_result = "7.79 min"

[[record]]
compound = "O=C1CC(c2ccc(O)cc2)Oc2cc(O)cc(O)c21 (stereo not drawn) [Naringenin]"
property_name = "LC retention time"
measured_result = "10.1 min"

[[record]]
compound = "O=C(O)/C=C/c1cccc(O)c1 [m-Coumaric acid]"
property_name = "LC retention time"
measured_result = "7.5 min"

[[record]]
compound = "COc1cc(-c2oc3cc(O)cc(O)c3c(=O)c2OC2OC(CO)C(O)C(O)C2O)ccc1O (stereo not drawn) [Isorhamnetin-3-O-glucoside]"
property_name = "LC retention time"
measured_result = "7.94 min"

[[record]]
compound = "O=C(O)c1cc(O)c(O)c(O)c1 [Gallic acid]"
property_name = "LC retention time"
measured_result = "1.56 min"


Lookup: Find the measured LC retention time of Oc1cc(O)c2c(c1)OC(c1cc(O)c(O)c(O)c1)C(O)C2 (single isomer, unassigned; (-)) [(-)-Epigallocatechin] and report it.
Found: 2.05 min

Lookup: Find the measured LC retention time of COc1cc(C(=O)O)ccc1O [Vanillic acid] and report it.
Found: 10 min

Lookup: Find the measured LC retention time of O=C(O)c1ccc(O)cc1O [2,4-Dihydroxybenzoic acid] and report it.
Found: 5.01 min
